Where do the numbers come from? From paper PMC8622278.

Tested on: locust neuron nAChR
Test: Whole-cell patch-clamp of locust mushroom body neurons, ACh-evoked currents
Format: cell-based, Schistocerca gregaria
Details: at −75 mV (abstract; 1 s current); read-out: IC50
measure: IC50 (nM)
The reply should be a number in nM, with the unit left off.

Given CCCC(=O)N[C@@H](CC1CCCCC1)C(=O)NCCCCCCCCCCCCN , respond with its IC50. 1.71
